- System: RARg:RXRa (NR concentration 270 nM, RXRa partner concentration 90 nM)
- Assay Remarks: PBM binding z-score (relative to random genomic background probes); higher = stronger binding; sequences stand for … in GC…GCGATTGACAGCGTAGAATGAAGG
Measured PBM binding z-score of individual entries
Please reply with the number alone, leaving off any unit.

ACTAGCAGGCCAAGGGTTACTCAAGATTAGTCCG: 0.885
CCTATTAGTTGACCATAGGGGCAACCGAAGCTCG: 0.669
TCATATAGGTAATACAGGTGAAAGGCGGCATCTA: 0.622
TTACCAAGGTGAGCTGAGGTGGTTGATCCAACTC: 0.00376
ATCGATAGGTCGACGAGGTGAGTATACACCGTTT: 1.8

Provide only the value of recorded PBM binding z-score for TCATATAGGCAAACAGGTGAAAGTCCGTAAGTTA
0.00145

Provide only the value of recorded PBM binding z-score for CCTACTGGGCCACCAGGTCATTGATATCAACGTT
2.19

* * *

- System: RXRa DBDmut IVT, anti-RXR (DBD mutation: RXRa K156A/R161A, NR concentration 90 nM)
- Assay Remarks: PBM binding z-score (relative to random genomic background probes); higher = stronger binding; sequences stand for … in GC…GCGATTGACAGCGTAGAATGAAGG
PBM binding z-score vs 0.6: at or above is fulfilled, below is not fulfilled.

# count of solved cases: 3
ACTAGTTGGTGAGCTGAGGTCACACACAATTCGG: fulfilled
AATACAGGGTCACTAGGCCGGAGTAGGTACGAAT: fulfilled
TCTCCTAGGTCAGTTGGTCAGCTAACGAGCTGCC: fulfilled

Hello, I need to know if TGAATGAGGTTAAAGATCCGGGAACGTGGCGTCG has measured PBM binding z-score not below 0.6. Thanks!
fulfilled

Hello, I need to know if ATCGAAAGGGCGAGGTGAGTATAGAGAAAGGGAA has measured PBM binding z-score not below 0.6. Thanks!
not fulfilled

Hello, I need to know if CCACACAGGTGAAAGGTAACTCAGTCTGGTACGC has measured PBM binding z-score not below 0.6. Thanks!
not fulfilled

Hello, I need to know if CCTACTGGACCATTCAGAGGTCATTGATCATATG has measured PBM binding z-score not below 0.6. Thanks!
fulfilled

Hello, I need to know if GCCACTGGGGCATCAGCAGGTTACCATAACTTAA has measured PBM binding z-score not below 0.6. Thanks!
not fulfilled

* * *

- Test system: RARb:RXRa (NR concentration 270 nM, RXRa partner concentration 90 nM)
- Assay Remarks: PBM binding z-score (relative to random genomic background probes); higher = stronger binding; sequences stand for … in GC…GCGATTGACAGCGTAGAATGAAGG
Attribute Measured: PBM binding z-score
Please reply with the number alone, leaving off any unit.

TCTGCTAGGTCAGTTGGTCAGTTAACGAGCTGCC: 3.3
AGAATGAGGTTATACGTAGATCAGTGAAGAAAGT: 1.39

Here's the next entry for you.
Provide only the value of recorded PBM binding z-score for AGTCAAAGTTCATCTAGGTAACTTAAGATATGCT
4.6

* * *

- System: PPARg DBDmut:RXRa IVT, anti-PPARg (DBD mutation: PPARg1 K132A/R137A, NR concentration 270 nM, RXRa partner concentration 90 nM)
- Assay Remarks: PBM binding z-score (relative to random genomic background probes); higher = stronger binding; sequences stand for … in GC…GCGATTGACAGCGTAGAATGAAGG
Attribute Measured: PBM binding z-score

Provide only the value of recorded PBM binding z-score for TAGCCAAGGTCATGGGCCAGTATACCACGCGAAC
0.971

* * *

- Tested on: LXRb:RXRa (NR concentration 270 nM, RXRa partner concentration 90 nM)
- Assay Remarks: PBM binding z-score (relative to random genomic background probes); higher = stronger binding; sequences stand for … in GC…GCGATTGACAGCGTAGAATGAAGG
Measured PBM binding z-score of individual entries
Please reply with the number alone, leaving off any unit.

Past entries and their recorded results:
GATACAGGGTCAACGCCAGAGTACGCGTATTGAT: 3.91
CCTAGTTGGTCCGGAGGTCACACACCGGATATGA: 3.37

Here's the next entry for you.
Provide only the value of recorded PBM binding z-score for CCTAGCAGGCCAATTTGGGTCACTCAAGGCTTGA
1.16

* * *

- Tested on: RXRa DBDmut IVT, anti-RXR (DBD mutation: RXRa K156A/R161A, NR concentration 90 nM)
- Assay Remarks: PBM binding z-score (relative to random genomic background probes); higher = stronger binding; sequences stand for … in GC…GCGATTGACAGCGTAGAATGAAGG
Attribute Measured: PBM binding z-score
Please reply with the number alone, leaving off any unit.

Past entries and their recorded results:
AGTCAAAGTTCAAGACGAGGTAACGTAAAGCACG: 3.8
ACTCGGAGGACAAAGGGCAGAGCTACGCCAGTGA: 0.468
CGAACTAGGTCATTGACAGGAGAGTGAATAGTAA: 2.21
CGTCTAAGGTCAGAGAGGTCAGTGAATGCCGAGT: 3.83
TCTAGTAGATCAATAGAGGTTAAGAAAGTGCGCT: 0.439
GGAACGAGGGCATTCGAGTTGGTAGCATGGCGAT: 2.93
TCTAGTTGGGCACGGAGGTCACACACGACGGGTA: 0.548
CGAACTATGTCAGAACAGGACAGTGAAGGATGAT: -0.123

Please tell me the measured PBM binding z-score for CTACCAAGGTGAACAAGGTCGTCGATTACTATTC ; system: RXRa DBDmut IVT, anti-RXR (DBD mutation: RXRa K156A/R161A, NR concentration 90 nM).
1.08

Please tell me the measured PBM binding z-score for AGAATGAGGTTACAAAAGATCAGGGAAACGCTTG ; system: RXRa DBDmut IVT, anti-RXR (DBD mutation: RXRa K156A/R161A, NR concentration 90 nM).
1.16

Please tell me the measured PBM binding z-score for CGTCCAAGGTCAAAGGTCAGAGAAGAGATGACGG ; system: RXRa DBDmut IVT, anti-RXR (DBD mutation: RXRa K156A/R161A, NR concentration 90 nM).
3.99

Please tell me the measured PBM binding z-score for GCTAGTTGGTCAGTAAAAAGTCACACACCGGTCG ; system: RXRa DBDmut IVT, anti-RXR (DBD mutation: RXRa K156A/R161A, NR concentration 90 nM).
0.212

Please tell me the measured PBM binding z-score for GTACCATGGTGAATAGGTCGTTGATGAGTAGGCG ; system: RXRa DBDmut IVT, anti-RXR (DBD mutation: RXRa K156A/R161A, NR concentration 90 nM).
-0.264

Please tell me the measured PBM binding z-score for AGACTGAGGTTAAGATCAGGGAAACAGAATACAT ; system: RXRa DBDmut IVT, anti-RXR (DBD mutation: RXRa K156A/R161A, NR concentration 90 nM).
0.593

* * *

- System: RXRa homodimer (NR concentration 180 nM)
- Assay Remarks: PBM binding z-score (relative to random genomic background probes); higher = stronger binding; sequences stand for … in GC…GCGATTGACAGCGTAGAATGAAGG
// class assignment uses PBM binding z-score with these ranges: c1 (below 0.6), c2 (0.6 to below 6), c3 (6 or more)

# count of solved cases: 8
GCGACAGGGGCATCAGCAGGTTACCATAACTTAA: c2
CATACTAGGTCACAGAGGTCAAAGTCCGTGCGTA: c3
TAGCCTAGGTCGTGCGGGCCAGTATAGTGTCGGC: c1
CCTAGTTGGTCAGGAGGTTACACACCGGATATGA: c2
CGTCCAGGGTCAGAGAGGTCAGTGAATGCCGAGT: c3
TCATATAGGTAAATGTGAAAGTCGAACGATATGA: c1
TTACCAAGGTGAGCTGAGATCGTTGATCCAACTC: c1
CATACGGGGTCAGCTAGGCCAGAGTAGGGACGGC: c3

Here's the next entry for you.
Input ATCTCTAGGTAACGAGTTCAGTGAAAGAGAGGAC ; output its category
c2

* * *

Measured PBM binding z-score of individual entries
- Test system: PPARg:RXRa IVT, anti-PPARg (NR concentration 270 nM, RXRa partner concentration 90 nM)
- Assay Remarks: PBM binding z-score (relative to random genomic background probes); higher = stronger binding; sequences stand for … in GC…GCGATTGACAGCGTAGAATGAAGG
Please reply with the number alone, leaving off any unit.

Past entries and their recorded results:
AGAATGATGTTAAGATCAGGGAAACAGAATACAT: -0.128
TCTTGTAGATCAAAGGTAAAGAAAGCCGAAGCCT: 2.4
CCTACTGGGCCAACAGGTCATTGATATCAACGTT: 4.84
AGAACGAGGGCAATGAGTGGATAGCACGGGTGGC: 2.32
GGGACGAGGGCAAGTTGATAGCAGAGTTTGATGG: 2.34

Provide only the value of recorded PBM binding z-score for CTCGAAGGGTCGTGCTCAGGTGAGTATACCAAAC
0.525

Provide only the value of recorded PBM binding z-score for TCTCGTAGATCAAGCAGGTTAAGAAAGCCTGAGT
-0.598

Provide only the value of recorded PBM binding z-score for GTACTAAGGTGAATAGGTCGTTGATGAGTAGGCG
3.12

Provide only the value of recorded PBM binding z-score for CTCGAAAGGTCGTGCTCAGGTAAGTATACCAAAC
1.78

Provide only the value of recorded PBM binding z-score for ATCTCTAGGTGAAGATAGTTCAGTGAATGCAAAT
4.44

Provide only the value of recorded PBM binding z-score for TCTTGGAGGACACGAAGGTCAGAGCTTTCCAGAG
2.46

meta.source: the supplement of paper PMC6555819
